- Tested on: PC-3
- PROTOCOL_SUMMARY: NCI tumour cell line growth inhibition, 48 h
The source made the active and inactive calls. No stated cut-off is given here; in the data, active = GI50 up to about 1.1 µM and inactive = higher.
REPORTED_ENDPOINT: GI50

// below: answered compounds
O=S(=O)(O)c1ccc(Nc2ccnc3ccccc23)cc1 :: > 100 µM (inactive)
Cc1ccc(NC(=O)CC(=O)n2nc(C)c(/N=N/c3cccc(C)c3)c2C)cc1 :: > 100 µM (inactive)
Brc1ccc2c([C@H]3CN[C@@H](c4c[nH]c5cc(Br)ccc45)CN3)c[nH]c2c1 :: 3.9 µM (inactive)
C=C1CC2CCCC12C=O (stereo not given) :: > 10 µM (inactive)
O=C1/C(=C/c2cccc([N+](=O)[O-])c2)N=C(c2ccccc2)N1c1nc2ccc(Sc3ccccc3)cc2[nH]1 :: 35.4 µM (inactive)

Let us move to another entry and its GI50.
Lookup: Using the record for "Cn1c2ccccc2n2c(=O)c(-c3ccc(O)cc3)nnc12" , report its GI50.
Found: > 100 µM (inactive)
